Target: ALK2 FOP mutant (aa172-499 R206H) (Homo sapiens (Human), UniProt Q04771, R206H)
Sequence (Q04771 172-499 R206H): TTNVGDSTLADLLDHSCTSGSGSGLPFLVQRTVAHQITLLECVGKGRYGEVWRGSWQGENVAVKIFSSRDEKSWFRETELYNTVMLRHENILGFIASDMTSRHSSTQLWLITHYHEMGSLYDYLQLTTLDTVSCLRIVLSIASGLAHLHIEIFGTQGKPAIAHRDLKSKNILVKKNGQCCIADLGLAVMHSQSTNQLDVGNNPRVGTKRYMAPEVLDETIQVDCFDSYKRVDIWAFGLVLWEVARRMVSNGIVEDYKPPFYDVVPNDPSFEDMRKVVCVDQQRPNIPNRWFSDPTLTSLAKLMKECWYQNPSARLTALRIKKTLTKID
Assay: Caliper biochemical peptide phosphorylation assay, ALK2 FOP
Conditions: Caliper peptide phosphorylation, R206H, 15 uM ATP; read-out: ALK2 FOP EPK IC50
pIC50: −log10 of the molar value.
measurement.kind: pIC50

>>> readout_value("CC(C)n1cc(-c2cncc(-c3ccc4c(c3)CC(=O)N4CCCO)c2)ccc1=O")
6.82
>>> readout_value("CC(C)n1cc(-c2cncc(-c3cnc4c(c3)CCC(=O)N4C)c2)ccc1=O")
6.62
>>> readout_value("COCCN1C(=O)Cc2cc(-c3cncc(-c4ccc(=O)n(C(C)C)c4)c3)ccc21")
6.82
>>> readout_value("CCN1C(=O)Cc2cc(-c3cncc(-c4ccc(=O)n(C(C)C)c4)c3)ccc21")
7.05
>>> readout_value("CC(C)n1cc(-c2cncc(-c3ccc4c(c3)CS(=O)(=O)N4CC3CCC3)c2)ccc1=O")
6.82
>>> readout_value("Cc1cc(-c2cncc(-c3ccc4c(c3)CC(=O)N4C)c2)cn(C(C)C)c1=O")
7.15
>>> readout_value("CC(C)Cn1cc(-c2cncc(-c3ccc4c(c3)CC(=O)N4C)c2)ccc1=O")
6.29
>>> readout_value("CN1C(=O)Cc2cc(-c3cncc(-c4ccc(=O)n(CC(F)(F)F)c4)c3)ccc21")
6.09
>>> readout_value("CCN1c2ccc(-c3cncc(-c4ccc(=O)n(C(C)C)c4)c3)cc2CS1(=O)=O")
6.89
>>> readout_value("CC(C)N1C(=O)Cc2cc(-c3cncc(-c4ccc(=O)n(C(C)C)c4)c3)ccc21")
7.28
>>> readout_value("CN1C(=O)Cc2cc(-c3cncc(-c4ccc(=O)n(C)c4)c3)ccc21")
6.09
>>> readout_value("CCC(C)n1cc(-c2cncc(-c3ccc4c(c3)CC(=O)N4C)c2)ccc1=O (stereo not drawn)")
6.77
>>> readout_value("COc1cc(-c2cncc(-c3ccc4c(c3)CC(=O)N4C)c2)cn(C(C)C)c1=O")
7.22
>>> readout_value("CC(C)n1cc(-c2cncc(-c3ccc4c(c3)CC(=O)N4C)c2F)ccc1=O")
6.42
>>> readout_value("CC(C)n1cc(-c2cc(-c3ccc4c(c3)CC(=O)N4C)cnc2N)ccc1=O")
6.82
>>> readout_value("CN1C(=O)Cc2cc(-c3cncc(-c4ccc(=O)n(CC5CCC5)c4)c3)ccc21")
6.33
>>> readout_value("CC(C)n1cc(-c2cncc(-c3ccc4c(c3)CC(=O)N4C)c2)ccc1=O")
7.05
>>> readout_value("CC(C)n1cc(-c2cncc(-c3ccc4c(c3)CC(=O)N4)c2)ccc1=O")
6.77
>>> readout_value("CN1C(=O)Cc2cc(-c3cncc(-c4ccc(=O)n(C5CCCCO5)c4)c3)ccc21 (stereo not drawn)")
6.22
>>> readout_value("CCC(CC)Cn1cc(-c2cncc(-c3ccc4c(c3)CC(=O)N4C)c2)ccc1=O")
6.24
>>> readout_value("COCn1cc(-c2cncc(-c3ccc4c(c3)CC(=O)N4C)c2)ccc1=O")
6.13
>>> readout_value("CCC(CC)CN1C(=O)Cc2cc(-c3cncc(-c4ccc(=O)n(C(C)C)c4)c3)ccc21")
7.10
>>> readout_value("CC(C)n1cc(-c2nc(-c3ccc4c(c3)CC(=O)N4C)cnc2N)ccc1=O")
7.05
>>> readout_value("CCn1cc(-c2cncc(-c3ccc4c(c3)CC(=O)N4C)c2)ccc1=O")
6.40

Cited source: patent US11160797B2
